test: Prodrug conversion in tumor of C57BL/6 mouse model with CES-/- bearing mouse EL4 cells assessed as Cmax of DON metabolite at 2.9 mg/kg, sc measured upto 6 hrs by LC-MS analysis; type: ADME, organism-based, Neoplasm; parameters: dose 2.9 mg/kg, time < 6 hrs, route sc; conditions: in vivo
assay.readout: Cmax
Remember to follow the number with its unit.

Tell me Cmax reported for CN(C)CC(=O)N[C@@H](Cc1ccccc1)C(=O)N[C@@H](CCC(=O)C=[N+]=[N-])C(=O)OC(C)(C)C
5.49 µM

----------
assay: Prodrug conversion in plasma of C57BL/6 mouse model with CES-/- bearing mouse EL4 cells assessed as Cmax of DON metabolite at 2.9 mg/kg, sc measured upto 6 hrs by LC-MS analysis; format: ADME, organism-based; set-up: time < 6 hrs, dose 2.9 mg/kg, route sc; conditions: in vivo
assay.readout: Cmax (nM)
Field format: number, assumed nM, no unit text.

Tell me Cmax reported for CN(C)CC(=O)N[C@@H](Cc1ccccc1)C(=O)N[C@@H](CCC(=O)C=[N+]=[N-])C(=O)OC(C)(C)C
1860
